Just for reference, paper PMC8429893 is where these values come from.

- target.of.assay: Noc (N121S) (Bacillus subtilis, UniProt P37524, N121S)
- Construct: B. subtilis Noc (N121S), His6-tagged
- Sequence (P37524 whole entry N121S): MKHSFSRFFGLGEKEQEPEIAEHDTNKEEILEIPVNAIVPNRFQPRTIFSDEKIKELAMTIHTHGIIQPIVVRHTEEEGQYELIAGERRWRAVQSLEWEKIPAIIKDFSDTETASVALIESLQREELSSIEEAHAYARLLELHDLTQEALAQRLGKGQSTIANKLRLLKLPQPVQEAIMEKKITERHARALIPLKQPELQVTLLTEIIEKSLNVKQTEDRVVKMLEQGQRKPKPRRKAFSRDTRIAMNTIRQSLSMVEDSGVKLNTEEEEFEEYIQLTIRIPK
- assay.notes: ITC
parameter.measured: Kd (µM)
Express the result in µM but write the number alone.

Which Kd value belongs to `Nc1ccn([C@@H]2O[C@H](COP(=O)(O)OP(=O)(O)OP(O)(O)=S)[C@@H](O)[C@H]2O)c(=O)n1` ?
232
